assay: Noncompetitive inhibition of His-tagged Plasmodium falciparum Sir2 expressed in Escherichia coli measured by primary plot of enzyme kinetics in presence of saturating NAD+ levels by FRET assay
Listing: pKi of selected compounds
// field semantics: pKi = negative decimal log of concentration (mol/L)

Before answering, review these 3 worked examples.
{"smiles representation": "COC(=O)[C@@H](NC(=O)[C@H](CCCCNC(=O)OCc1cn(C[C@H]2O[C@@H](n3cc(C)c(=O)[nH]c3=O)C[C@@H]2OC(C)=O)nn1)NC(=O)[C@H](Cc1ccccc1)NC(=O)OC(C)(C)C)C(C)C", "pKi": 3.91}
{"smiles representation": "COC(=O)[C@@H](NC(=O)[C@H](CCCCNC(=O)OCc1cn(C[C@H]2O[C@H](OC)[C@H](OC(C)=O)[C@@H](OC(C)=O)[C@@H]2OC(C)=O)nn1)NC(=O)[C@H](Cc1ccccc1)NC(=O)OC(C)(C)C)C(C)C", "pKi": 3.87}
{"smiles representation": "COC(=O)[C@@H](NC(=O)[C@H](CCCCNC(=O)OCc1cn([C@@H]2O[C@H]([C@@H]3COC(C)(C)O3)[C@@H]3OC(C)(C)O[C@@H]32)nn1)NC(=O)[C@H](Cc1ccccc1)NC(=O)OC(C)(C)C)C(C)C", "pKi": 3.91}

Which measured pKi value corresponds to `COC(=O)[C@@H](NC(=O)[C@H](CCCCNC(=O)OCc1cn([C@@H]2O[C@H](COC(C)=O)[C@H](OC(C)=O)[C@H](OC(C)=O)[C@H]2OC(C)=O)nn1)NC(=O)[C@H](Cc1ccccc1)NC(=O)OC(C)(C)C)C(C)C` ?
3.81

---

experiment: Inhibition of His-tagged Plasmodium falciparum Sir2 expressed in Escherichia coli preincubated 5 min before substrate assay mixture addition by FRET assay
assay readout: IC50 (µM)
Provide only the numeric value, understood in µM.

The examples below pair each entry with its known result.
{"smiles representation": "COC(=O)[C@@H](NC(=O)[C@H](CCCCNC(=O)OCc1cn(C[C@H]2O[C@H](OC)[C@H](OC(C)=O)[C@@H](OC(C)=O)[C@@H]2OC(C)=O)nn1)NC(=O)[C@H](Cc1ccccc1)NC(=O)OC(C)(C)C)C(C)C", "unit abbreviation": "µM", "measured result": 23}
{"smiles representation": "COC(=O)[C@@H](NC(=O)[C@H](CCCCNC(=O)OCc1cn(C[C@H]2O[C@@H](n3cc(C)c(=O)[nH]c3=O)C[C@@H]2OC(C)=O)nn1)NC(=O)[C@H](Cc1ccccc1)NC(=O)OC(C)(C)C)C(C)C", "unit abbreviation": "µM", "measured result": 33}
{"smiles representation": "COC(=O)[C@@H](NC(=O)[C@H](CCCCNC(=O)OCc1cn([C@@H]2O[C@H](COC(C)=O)[C@H](OC(C)=O)[C@H](OC(C)=O)[C@H]2OC(C)=O)nn1)NC(=O)[C@H](Cc1ccccc1)NC(=O)OC(C)(C)C)C(C)C", "unit abbreviation": "µM", "measured result": 151}

Can you look up the measured IC50 of `COC(=O)[C@@H](NC(=O)[C@H](CCCCNC(=O)OCc1cn([C@@H]2O[C@H]([C@@H]3COC(C)(C)O3)[C@@H]3OC(C)(C)O[C@@H]32)nn1)NC(=O)[C@H](Cc1ccccc1)NC(=O)OC(C)(C)C)C(C)C` for me?
34

---

experiment: Competitive inhibition of His-tagged Plasmodium falciparum Sir2 expressed in Escherichia coli measured by secondary plot of slope versus inhibitor concentration in presence of saturating acetylated peptide levels by FRET assay
assay readout: Ki (µM)
Only the number, expressed in µM, is required.

Example results:
{"smiles representation": "COC(=O)[C@@H](NC(=O)[C@H](CCCCNC(=O)OCc1cn([C@@H]2O[C@H]([C@@H]3COC(C)(C)O3)[C@@H]3OC(C)(C)O[C@@H]32)nn1)NC(=O)[C@H](Cc1ccccc1)NC(=O)OC(C)(C)C)C(C)C", "Ki [µM]": 62}
{"smiles representation": "COC(=O)[C@@H](NC(=O)[C@H](CCCCNC(=O)OCc1cn(C[C@H]2O[C@@H](n3cc(C)c(=O)[nH]c3=O)C[C@@H]2OC(C)=O)nn1)NC(=O)[C@H](Cc1ccccc1)NC(=O)OC(C)(C)C)C(C)C", "Ki [µM]": 64}
{"smiles representation": "COC(=O)[C@@H](NC(=O)[C@H](CCCCNC(=O)OCc1cn(C[C@H]2O[C@H](OC)[C@H](OC(C)=O)[C@@H](OC(C)=O)[C@@H]2OC(C)=O)nn1)NC(=O)[C@H](Cc1ccccc1)NC(=O)OC(C)(C)C)C(C)C", "Ki [µM]": 60}

Attention now shifts to the item below.
Suppose we examine the molecule `COC(=O)[C@@H](NC(=O)[C@H](CCCCNC(=O)OCc1cn([C@@H]2O[C@H](COC(C)=O)[C@H](OC(C)=O)[C@H](OC(C)=O)[C@H]2OC(C)=O)nn1)NC(=O)[C@H](Cc1ccccc1)NC(=O)OC(C)(C)C)C(C)C` ; what Ki value has been reported?
80
